tested on: Bach1 mRNA; experiment: Initial screen: Bach1 mRNA knock-down in mouse NIH 3T3 cells (96-well transfection, quantitative RT-PCR); assay type: cell-based; conditions: mouse NIH3T3 cells, n = 2, 24 hrs post-transfection, protocol 10 nM siNA
[invAb] = inverted abasic unit; m = 2'-O-methyl; r = 2'-OH (RNA); f = 2'-fluoro
readout: % KD (%)
Answer format: numeric, % implied, no suffix.

Incoming: What value of % KD has been recorded for this entry: 29978-DC: Bach1 siNA duplex, target site 403 (mouse); sense B GGuuAAAGGAuuuGAAccu TTB (SEQ 105); antisense AGGuucAAAuccuuuAAccUU (SEQ 106) (sense GGUUAAAGGAUUUGAACCUTT; antisense AGGUUCAAAUCCUUUAACCUU; sense: DNA at AGT, 2'-fluoro at CU, [invAb] at 5' end, 3' end, backbone not given here; antisense: sugars from the 5' end rrrfffmmmffffffmmffmm, backbone not given here)
Outgoing: 3.3

###

tested on: Bach1 mRNA; assay: Initial screen: Bach1 mRNA knock-down in human A549 cells (96-well transfection, quantitative RT-PCR); format: cell-based; details: Bach1 mRNA, 10 nM siNA, human A549 cells, n = 2, mean ± S.D., normalized to GAPDH and non-targeting control, 24 hrs post-transfection
[invAb] = inverted abasic unit; m = 2'-O-methyl; r = 2'-OH (RNA); f = 2'-fluoro
Form field: % KD (one value per entry).
Answer format: numeric, % implied, no suffix.

[[record]]
substance = "29977-DC: Bach1 siNA duplex, target site 1640 (mouse); sense B GAGccuuGcccGuAuGcuu TTB (SEQ 103); antisense AAGcAuAcGGGcAAGGcucUU (SEQ 104) (sense GAGCCUUGCCCGUAUGCUUTT; antisense AAGCAUACGGGCAAGGCUCUU; sense: DNA at AGT, 2'-fluoro at CU, [invAb] at 5' end, 3' end, backbone not given here; antisense: sugars from the 5' end rrrfmfmfmmmfmmmmfffmm, backbone not given here)"
reading = 18.9

[[record]]
substance = "29954-DC: Bach1 siNA duplex, target site 1389; sense B cAGAAcAGAucucAcAGAA TTB (SEQ 57); antisense UCCuGuGAGAucuGuucuGUU (SEQ 58) (sense CAGAACAGAUCUCACAGAATT; antisense UCCUGUGAGAUCUGUUCUGUU; sense: DNA at AGT, 2'-fluoro at CU, [invAb] at 5' end, 3' end, backbone not given here; antisense: sugars from the 5' end rrrfmfmmmmfffmffffmmm, backbone not given here)"
reading = 63.4

[[record]]
substance = "29975-DC: Bach1 siNA duplex, target site 1893 (mouse); sense B GucGcAAGAGGAAAcuuGA TTB (SEQ 99); antisense UCAAGuuuccucuuGcGAcUU (SEQ 100) (sense GUCGCAAGAGGAAACUUGATT; antisense UCAAGUUUCCUCUUGCGACUU; sense: DNA at AGT, 2'-fluoro at CU, [invAb] at 5' end, 3' end, backbone not given here; antisense: sugars from the 5' end rrrmmfffffffffmfmmfmm, backbone not given here)"
reading = 59


# context switch: different substance, same % KD
Incoming: What value of % KD has been recorded for this entry: 29980-DC: Bach1 siNA duplex, target site 1939 (mouse); sense B cGAGAAGcuGcAAAGuGAA TTB (SEQ 109); antisense UUCAcuuuGcAGcuucucGUU (SEQ 110) (sense CGAGAAGCUGCAAAGUGAATT; antisense UUCACUUUGCAGCUUCUCGUU; sense: DNA at AGT, 2'-fluoro at CU, [invAb] at 5' end, 3' end, backbone not given here; antisense: sugars from the 5' end rrrmffffmfmmffffffmmm, backbone not given here)
Outgoing: 91.3

###

test system: Bach1 mRNA; experiment: Initial screen: Bach1 mRNA knock-down in mouse NIH 3T3 cells (96-well transfection, quantitative RT-PCR); assay type: cell-based; details: mouse NIH3T3 cells, n = 2, 24 hrs post-transfection, protocol 10 nM siNA
[invAb] = inverted abasic unit; d = 2'-deoxy (DNA); m = 2'-O-methyl; r = 2'-OH (RNA); f = 2'-fluoro
readout: % KD (%)
Answer format: numeric, % implied, no suffix.

Answered examples (2):
[[record]]
substance = "29984-DC (sense GUUAAAGGAUUUGAACCUUTT; antisense AAGGUUCAAAUCCUUUAACUU; inverted abasic end caps, TT overhangs, modified nucleotides, further chemistry not given here)"
readout = "% KD"
unit_abbrev = "%"
reading = 50.5

[[record]]
substance = "29951-DC: Bach1 siNA duplex, target site 1162; sense B GccuuuGucAGGuAcAGAc TTB (SEQ 51); antisense GUCuGuAccuGAcAAAGGcUU (SEQ 52) (sense GCCUUUGUCAGGUACAGACTT; antisense GUCUGUACCUGACAAAGGCUU; sense: DNA at AGT, 2'-fluoro at CU, [invAb] at 5' end, 3' end, backbone not given here; antisense: sugars from the 5' end rrrfmfmfffmmfmmmmmfmm, backbone not given here)"
readout = "% KD"
unit_abbrev = "%"
reading = "−22"


Incoming: What value of % KD has been recorded for this entry: 29965-DC: Bach1 siNA duplex, target site 596; sense B GAccAGAGGGAucuAGAAA TTB (SEQ 79); antisense UUUcuAGAucccucuGGucUU (SEQ 80) (sense GACCAGAGGGAUCUAGAAATT; antisense UUUCUAGAUCCCUCUGGUCUU; sense: sugars from the 5' end d2 f2 d7 f3 d7, [invAb] at 5' end, 3' end, backbone not given here; antisense: sugars from the 5' end rrrffmmmfffffffmmffmm, backbone not given here)
Outgoing: 4.8
